# Tested Target: H-2Kd (Mus musculus, UniProt P01902)
# Construct: expressed in transfected cells; host or cells: RMAS (TAP-deficient murine cell line) transfected with H-2Kd
# Sequence (P01902 22-368): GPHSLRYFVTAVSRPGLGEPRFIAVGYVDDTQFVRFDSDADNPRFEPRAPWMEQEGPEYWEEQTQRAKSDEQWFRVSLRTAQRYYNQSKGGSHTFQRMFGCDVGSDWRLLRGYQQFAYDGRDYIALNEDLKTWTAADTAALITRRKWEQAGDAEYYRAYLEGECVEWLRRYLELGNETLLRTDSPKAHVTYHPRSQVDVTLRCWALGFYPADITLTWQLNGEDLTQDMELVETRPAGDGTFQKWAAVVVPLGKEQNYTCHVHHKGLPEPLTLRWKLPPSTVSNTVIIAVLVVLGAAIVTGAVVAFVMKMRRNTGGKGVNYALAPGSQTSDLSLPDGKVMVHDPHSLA
# Sequence (P01887 21-119 partner): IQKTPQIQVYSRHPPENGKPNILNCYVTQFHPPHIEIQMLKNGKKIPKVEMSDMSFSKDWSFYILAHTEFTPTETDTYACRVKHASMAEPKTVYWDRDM
# Experimental Protocol: MHC class I stabilization assay on RMAS-Kd cells (FACS)
# Assay type: binding
# Condition Description: background without peptide 6.07%
Property Name: proportion of H-2Kd on the surface of the APC in the presence of peptide (%)
Write the value in % as a bare number.

Substance	Value Observed
TUM: negative control; derived from an endogenous tumour peptide, known to bind H-2Kd (KYQAVTTTL)	66

Find the recorded proportion of H-2Kd on the surface of the APC in the presence of peptide belonging to KLPAVLLIL (mTV-1 peptide epitope) [TV1] and report it. 64

Which proportion of H-2Kd on the surface of the APC in the presence of peptide is reported for this substance? KYPAVLLIL (modified version of precursor peptide TV1 (TV2)) 58

Item RLLPLLALL (mouse insulin derived peptide) [TV3] has what recorded proportion of H-2Kd on the surface of the APC in the presence of peptide? 70

Reported proportion of H-2Kd on the surface of the APC in the presence of peptide, substance LYLVCGERG [INSL] : ____ 73.68

So what does the record say about proportion of H-2Kd on the surface of the APC in the presence of peptide for KYNKANVFL [NRP-V7, positive control] ? 72

// provenance: patent US20070129307A1
